- SYSTEM TESTED: T1, human tissue factor pathway inhibitor (TFPI) (human, UniProt P10646 29-304, limits assumed)
- T1 construct: bought; also called hTFPI; human TFPI
- T1 sequence (looked up): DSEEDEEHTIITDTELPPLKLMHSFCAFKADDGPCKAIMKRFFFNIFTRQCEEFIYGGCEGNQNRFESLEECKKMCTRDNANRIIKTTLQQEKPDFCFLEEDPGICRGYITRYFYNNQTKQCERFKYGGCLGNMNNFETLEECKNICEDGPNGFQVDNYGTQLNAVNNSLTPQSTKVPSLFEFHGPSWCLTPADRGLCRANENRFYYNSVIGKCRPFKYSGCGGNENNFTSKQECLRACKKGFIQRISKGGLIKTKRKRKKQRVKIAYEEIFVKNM
- PROCEDURE TEXT: competitive ELISA
# Lookup of reported variant/HC_D62R keyed by entry
Value expressed in ratio; do not type the unit.

Prompt: Fill in the blank: the reported variant/HC_D62R of 4B7 HC N32D+G44S+D62R+Y112D/LC S32R+D33F+N35I+D97T (Fab, V domains shown) VH: QVQLQQSGPGLVKPSQTLSLTCAISGDSVSSDSAAWSWIRQSPSRGLEWLGIIYKRSKWYNRYAVSVKSRITINPDTSKNQFSLQLNSVTPEDTAVYYCARWHSDKHWGFDDWGQGTLVTVSS VL: DIVMTQSPLSLPVTPGEPASISCRSSQSLVFRFGITYLNWYLQKPGQSPQLLIYKGSNRASGVPDRFSGSGSGTDFTLKISRVEAEDVGVYYCQQYTSYPLTFGQGTKVEIKR is ____.
Response: 26.5

Prompt: So what's the measured variant/HC_D62R for this one? 4B7 HC N32D+D62R+Y112D/LC S32R+D33F+N35I+A60D+D97T (Fab, V domains shown) VH: QVQLQQSGPGLVKPSQTLSLTCAISGDSVSSDSAAWSWIRQSPGRGLEWLGIIYKRSKWYNRYAVSVKSRITINPDTSKNQFSLQLNSVTPEDTAVYYCARWHSDKHWGFDDWGQGTLVTVSS VL: DIVMTQSPLSLPVTPGEPASISCRSSQSLVFRFGITYLNWYLQKPGQSPQLLIYKGSNRDSGVPDRFSGSGSGTDFTLKISRVEAEDVGVYYCQQYTSYPLTFGQGTKVEIKR
Response: 19.1
